Property: koff; scope: individual binders
- TARGET_OR_SYSTEM: T1, Cynomolgus TCR(AEA41865/AEA41866)-zipper protein (cynomolgus monkey)
- T1 construct: also called cyTCR-zipper protein; cynoTCR zipper
- T1 TCR alpha: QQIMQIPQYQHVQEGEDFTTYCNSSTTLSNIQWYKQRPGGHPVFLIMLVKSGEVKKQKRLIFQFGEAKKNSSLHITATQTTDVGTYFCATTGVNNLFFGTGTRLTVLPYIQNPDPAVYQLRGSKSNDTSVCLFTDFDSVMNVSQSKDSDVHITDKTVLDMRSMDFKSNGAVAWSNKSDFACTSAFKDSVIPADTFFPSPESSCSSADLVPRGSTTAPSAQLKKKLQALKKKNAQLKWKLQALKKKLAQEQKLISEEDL
- T1 TCR beta: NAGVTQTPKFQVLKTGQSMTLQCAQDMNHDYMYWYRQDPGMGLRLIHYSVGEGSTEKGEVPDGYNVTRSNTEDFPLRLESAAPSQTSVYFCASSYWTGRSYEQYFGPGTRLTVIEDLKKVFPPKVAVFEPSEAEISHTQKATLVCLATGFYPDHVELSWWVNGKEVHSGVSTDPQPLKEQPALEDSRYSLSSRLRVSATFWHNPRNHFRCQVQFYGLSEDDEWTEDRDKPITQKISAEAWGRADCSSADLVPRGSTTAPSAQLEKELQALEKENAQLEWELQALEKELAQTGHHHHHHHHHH
- EXPERIMENTAL_PROTOCOL: SPR ProteOn off-rate screen
The reply should contain only the number, in s⁻¹.

These recorded examples may help you get a feel for the data.
INSERT INTO measurements (binder, val) VALUES
  ('T017000608 (VHH) VHH: EVQLVESGGGVVQPGGSLRLSCVASWDVHKINFYGWYRQAPGKEREKVAHISIGDQTDYADSAKGRFTISRDESKNMVYLQMNSLRPEDTALYFCRAFSKIWPYDYWGQGTLVTVSS', 0.000472),
  ('T017000368 (VHH) VHH: EVQLVESGGGVVQPGGSLRLSCVASWDVHQINFYGWYRQAPGKEREKVAHISIGDQTDYADSAKGRFTISRDESKNMVYLQMNSLRPEDTALYFCRAMSRIYPYDYWGQGTLVTVSS', 0.00129),
  ('T017000381 (VHH) VHH: EVQLVESGGGVVQPGGSLRLSCVASGAVHKINFLGWYRQAPGKEREKVAHISIGDQTDYADSAKGRFTISRDESKNMVYLQMNSLRPEDTALYFCRAMSRIYPYDYWGQGTLVTVSS', 0.00216);

Task item: // koff lookup, key: T017000364 (VHH) VHH: EVQLVESGGGVVQPGGSLRLSCVASGAVHQINFLGWYRQAPGKEREKVAHISIGDQTDYADSAKGRFTISRDESKNMVYLQMNSLRPEDTALYFCRAMSRIWPYDYWGQGTLVTVSS
Reply: 0.0026
